Data origin, for the record: patent US20170304288A1

Sequence of the target: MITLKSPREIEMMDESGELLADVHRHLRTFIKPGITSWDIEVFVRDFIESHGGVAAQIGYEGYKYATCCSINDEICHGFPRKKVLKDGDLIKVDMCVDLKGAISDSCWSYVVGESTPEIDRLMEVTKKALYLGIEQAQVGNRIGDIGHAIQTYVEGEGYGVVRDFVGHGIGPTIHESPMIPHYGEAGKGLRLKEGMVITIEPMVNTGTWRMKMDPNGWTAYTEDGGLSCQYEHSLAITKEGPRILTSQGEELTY
pIC50: −log10 of the molar value.
List of pIC50 values.
parameter: pIC50

compound | parameter | recorded.result
Clc1cc2c(c3ncccc13)OCN(C1CCCCC1)C2 | pIC50 | 5.28
Oc1c(I)cc(Cl)c2cccnc12 [drawing 38] | pIC50 | 4.73
CC(=O)Oc1c(Cl)cc(Cl)c2cccnc12 | pIC50 | 4.83
Oc1c(Br)cc(Cl)c2cccnc12 [drawing 36] | pIC50 | 4.92
